- TARGET_DESC: AAK1 (full length human) (Homo sapiens, UniProt Q2M2I8)
- Construct: HA; expressed in transfected cells; host or cells: HEK293F
- Sequence (Q2M2I8 whole entry): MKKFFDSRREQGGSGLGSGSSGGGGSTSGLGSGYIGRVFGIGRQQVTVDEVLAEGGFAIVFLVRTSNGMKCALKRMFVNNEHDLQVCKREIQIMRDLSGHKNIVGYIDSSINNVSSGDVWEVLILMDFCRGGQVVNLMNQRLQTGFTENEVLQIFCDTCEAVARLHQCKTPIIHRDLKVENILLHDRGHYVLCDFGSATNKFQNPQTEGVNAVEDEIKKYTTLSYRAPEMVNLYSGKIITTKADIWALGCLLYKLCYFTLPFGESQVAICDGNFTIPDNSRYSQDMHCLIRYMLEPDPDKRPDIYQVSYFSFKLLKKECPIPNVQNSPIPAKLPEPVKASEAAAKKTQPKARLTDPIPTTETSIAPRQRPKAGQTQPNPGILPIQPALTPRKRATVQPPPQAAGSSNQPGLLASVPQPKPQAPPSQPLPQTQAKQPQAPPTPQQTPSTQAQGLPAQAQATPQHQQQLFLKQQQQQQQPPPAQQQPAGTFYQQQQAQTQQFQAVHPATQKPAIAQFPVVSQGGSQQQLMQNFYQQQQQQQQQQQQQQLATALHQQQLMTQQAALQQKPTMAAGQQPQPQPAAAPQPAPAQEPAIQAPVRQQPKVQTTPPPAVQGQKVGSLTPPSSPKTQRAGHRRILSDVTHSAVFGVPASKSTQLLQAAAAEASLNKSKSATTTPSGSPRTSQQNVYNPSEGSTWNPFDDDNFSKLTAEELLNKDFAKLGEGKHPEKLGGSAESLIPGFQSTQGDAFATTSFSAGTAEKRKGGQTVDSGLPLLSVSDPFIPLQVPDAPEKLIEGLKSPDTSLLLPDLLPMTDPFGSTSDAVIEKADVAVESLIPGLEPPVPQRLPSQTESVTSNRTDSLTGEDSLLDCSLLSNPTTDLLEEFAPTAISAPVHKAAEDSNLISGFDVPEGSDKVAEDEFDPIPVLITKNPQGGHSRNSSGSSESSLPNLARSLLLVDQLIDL
- ASSAY_NOTES: HEK281 Cell-Based Assay (HEK293F cells transfected with AAK1 and AP2M1; phospho-mu2 Western blot)
- CONDITION_SUMMARY: 3 h, numeric values
OUTCOME_MEASURE: IC50 (nM)

Recorded IC50, per entry:
[[record]]
compound = "CC(C)C[C@H](N)COc1ccc2c(c1)OC(C)c1cnccc1-2 (single isomer, unassigned) [Example 6a]"
readout_unit = "nM"
recorded_result = 25

[[record]]
compound = "CC(C)C[C@H](N)COc1ccc2c(c1)OC(C)c1cnccc1-2 (single isomer, unassigned) [Example 6b]"
readout_unit = "nM"
recorded_result = 4.3


1. CC(C)C[C@H](N)COc1ccc2c(c1)oc(=O)c1cnccc12 [Example 11]
2. CC(C)C[C@H](N)COc1ccc2c(c1)OCc1cnc(NC(=O)C3CC3)cc1-2 [Example 42]
Could you point out whether the larger IC50 belongs to 1 or to 2 ? Please reply using the label of the selected record.
1

====

Collected pIC50 values appear next to each entry.
- TARGET_DESC: GST-Xa-hAAK1 (Homo sapiens, UniProt Q2M2I8)
- Construct: made in house
- Sequence (Q2M2I8 whole entry): as above
- ASSAY_NOTES: AAK1 Kinase Assay (Caliper LabChip, fluoresceinated peptide substrate)
- Type: biochemical
- CONDITION_SUMMARY: ATP 22 μM; listed as IC50 ranges
pIC50: −log10 of the molar value.

Record excerpt, results attached:
[[record]]
molecule = "CC(C)C[C@H](N)COc1ccc2c(c1)OC(C)c1c-2ccnc1N (some centres unmarked)"
outcome_measure = "pIC50"
recorded_result = "8.00 to 9.00"

[[record]]
molecule = "CC(C)C[C@H](N)COc1cc2c(cc1C#N)-c1ccncc1C(C)O2 (mixture of isomers)"
outcome_measure = "pIC50"
recorded_result = "8.00 to 9.00"

[[record]]
molecule = "COc1c(OC[C@@H](N)CC(C)C)ccc2c1OCc1cnc(NC(C)=O)cc1-2"
outcome_measure = "pIC50"
recorded_result = "7.00 to 8.00"

[[record]]
molecule = "CC[C@H](N)COc1ccc2c(c1)OCc1cnccc1-2"
outcome_measure = "pIC50"
recorded_result = "7.00 to 8.00"

[[record]]
molecule = "CC1Oc2cc(OC[C@@H](N)CC3CCCC3)ccc2-c2ccncc21 (mixture of isomers)"
outcome_measure = "pIC50"
recorded_result = "7.00 to 8.00"


Continue with the next molecule.
May I ask what pIC50 has been recorded for `Cc1cc2c(cn1)COc1cc(OC[C@@H](N)CC(C)C)ccc1-2` ?
6.00 to 7.00

====

- TARGET_DESC: GST-Xa-hAAK1 (Homo sapiens)
- Construct: made in house
- ASSAY_NOTES: AAK1 Kinase Assay (Caliper LabChip, fluoresceinated peptide substrate)
- Format: biochemical
- CONDITION_SUMMARY: ATP 22 μM; listed as IC50 ranges
pIC50: −log10 of the molar value.
OUTCOME_MEASURE: pIC50

[[record]]
compound = "CC(=O)Nc1cc2c(cn1)C(C)Oc1cc(OC[C@@H](N)CC(C)C)ccc1-2 (stereo partly shown)"
recorded_result = "7.00 to 8.00"

[[record]]
compound = "CC(C)C[C@H](N)COc1cc2c(cc1Br)-c1ccncc1C(C)O2 (mixture of isomers)"
recorded_result = "8.00 to 9.00"

[[record]]
compound = "CC(C)C[C@H](N)COc1ccc2c(c1)OC(C)c1cnccc1-2 (mixture of isomers)"
recorded_result = "8.00 to 9.00"


Requested read-out: pIC50. Entry: `CC(C)C[C@H](N)COc1ccc2c(c1)OC1(COC1)c1cnccc1-2`
6.00 to 7.00

====

Reported IC50 is given for each of the following molecules.
- TARGET_DESC: AAK1 (full length human) (Homo sapiens, UniProt Q2M2I8)
- Construct: HA; expressed in transfected cells; host or cells: HEK293F
- ASSAY_NOTES: HEK281 Cell-Based Assay (HEK293F cells transfected with AAK1 and AP2M1; phospho-mu2 Western blot)
- CONDITION_SUMMARY: 3 h, listed as IC50 ranges
- Procedure: HEK293F cells were cultured in media containing DMEM (Gibco, cat. #11965), 10% FBS (SAFC Biosciences, cat. #12103C), 1× GPS (glutamine, penicillin and streptomycin). On day one, cells were plated on a 10 cm dish so that they are ˜80% confluent at time of transfection. Roughly 12 million cells were in a 10 cm dish at time of transfection. On day two, each dish was transfected with 48 ug DNA and 144 μl Lipofectamine 2000 (Invitrogen, cat. #11668-019). […]

[[record]]
molecule = "CC(=O)Nc1cc2c(cn1)COc1cc(OCC(C)(N)CC(C)C)ccc1-2 (racemic) [Example 44]"
outcome_measure = "IC50"
recorded_result = "10 to 100 nM"

[[record]]
molecule = "COc1c(OC[C@@H](N)CC(C)C)ccc2c1OCc1cnc(NC(C)=O)cc1-2 [Example 37]"
outcome_measure = "IC50"
recorded_result = "1 to 10 nM"

[[record]]
molecule = "CC(C)C[C@H](N)COc1ccc2c(c1)OCc1cnc(N)cc1-2 [Example 33]"
outcome_measure = "IC50"
recorded_result = "10 to 100 nM"

[[record]]
molecule = "CC(C)C[C@H](N)COc1ccc2c(c1)OCc1cncc(F)c1-2 [Example 16]"
outcome_measure = "IC50"
recorded_result = "1 to 10 nM"

[[record]]
molecule = "NC(CCC(F)(F)F)COc1ccc2c(c1)OCc1cnccc1-2 (racemic) [Example 17]"
outcome_measure = "IC50"
recorded_result = "10 to 100 nM"


State the recorded IC50 for this entry: CC(=O)Nc1cc2c(cn1)COc1cc(OCC(N)CCC(F)(F)F)ccc1-2 (racemic) [Example 36]
1 to 10 nM

Please look up its IC50: CC(=O)Nc1cc2c(cn1)COc1c-2ccc(OC[C@@H](N)CC(C)C)c1C [Example 35]
< 1 nM

====

- TARGET_DESC: GST-Xa-hAAK1 (Homo sapiens, UniProt Q2M2I8)
- Construct: made in house
- ASSAY_NOTES: AAK1 Kinase Assay (Caliper LabChip, fluoresceinated peptide substrate)
- Assay type: biochemical
- CONDITION_SUMMARY: ATP 22 μM; listed as IC50 ranges
pIC50: −log10 of the molar value.
Each entry below carries its reported pIC50.

[[record]]
compound = "CC(C)C[C@H](N)COc1cc2c(cc1Br)-c1ccncc1CO2"
recorded_result = "8.00 to 9.00"

[[record]]
compound = "NC(CCC(F)(F)F)COc1ccc2c(c1)OCc1cnccc1-2 (racemic)"
recorded_result = "7.00 to 8.00"

[[record]]
compound = "CCC1Oc2cc(OC[C@@H](N)CC(C)C)ccc2-c2ccncc21 (mixture of isomers) [Example 10]"
recorded_result = "7.00 to 8.00"

[[record]]
compound = "CC(C)C[C@H](N)COc1cc2c(cc1Cl)-c1ccncc1C(C(F)(F)F)O2 (mixture of isomers)"
recorded_result = "8.00 to 9.00"

[[record]]
compound = "CC(C)C[C@H](N)COc1ccc2c(c1)OC(C1CC1)c1cnccc1-2 (mixture of isomers) [Example 8]"
recorded_result = "7.00 to 8.00"


Looking for the measured pIC50 of CC(C)C[C@H](N)COc1ccc2c(c1)OC(CO)(CCl)c1cnccc1-2 (some centres unmarked) , can you help?
7.00 to 8.00

What measured pIC50 goes with CC(C)C[C@H](N)COc1ccc2c(c1)OC(C)c1cnc(N)cc1-2 (some centres unmarked) ?
7.00 to 8.00

Look up pIC50 for this compound: `CC(=O)Nc1cc2c(cn1)COc1c-2ccc(OC[C@@H](N)CC(C)C)c1C(F)F`
> 9.00

====

- TARGET_DESC: AAK1 (full length human) (Homo sapiens, UniProt Q2M2I8)
- Construct: HA; expressed in transfected cells; host or cells: HEK293F
- ASSAY_NOTES: HEK281 Cell-Based Assay (HEK293F cells transfected with AAK1 and AP2M1; phospho-mu2 Western blot)
- CONDITION_SUMMARY: 3 h, numeric values
pIC50: −log10 of the molar value.
Recorded measurements of pIC50, one per entry

See these solved cases before continuing.
[[record]]
molecule = "CC(=O)Nc1cc2c(cn1)COc1cc(OC[C@@H](N)CC(C)C)c(Cl)cc1-2"
recorded_result = "< 7.00"

[[record]]
molecule = "CC(=O)Nc1cc2c(cn1)COc1c-2ccc(OC[C@@H](N)CC(C)C)c1F"
recorded_result = 8.68

[[record]]
molecule = "CC(C)C[C@@H](N)COc1ccc2c(c1)OC(C1CC1)c1cnccc1-2 (single isomer, unassigned) [Example 9b]"
recorded_result = "< 6.52"


The record that follows has no pIC50 shown yet.
Using the record for CC(C)C[C@@H](N)COc1ccc2c(c1)OC(C)c1cnccc1-2 (single isomer, unassigned) , report its pIC50.
< 6.52
